Just for reference, ChEMBL document CHEMBL1201862 is where these values come from.

system: SNB-19; assay: NCI tumour cell line growth inhibition, 48 h
Active and inactive are the calls of the source. Rule as the data show it: active = GI50 up to about 1.1 µM and inactive = higher.
Kindly state GI50 for each of the entries shown.

response.value for CCC(C)C(=O)OC1C(=O)OC2CC3C(C)=CC(=O)C(O)C3(C)C3C4(O)OCC23C1C(C)C4O (stereo unspecified) (field: GI50) = < 0.0152 µM (active)

response.value for O=C(O)c1ccc(Oc2nc3ccccc3s2)cc1 (field: GI50) = > 100 µM (inactive)

response.value for COc1ccccc1NC(=O)C1=C(C)NC(C)=C(C(=O)Nc2ccccc2OC)C1c1ccccc1OC (field: GI50) = > 100 µM (inactive)

response.value for O=c1c2ccccc2nc(-c2ccc(Cl)cc2)n1O (field: GI50) = 25.2 µM (inactive)

response.value for NS(=O)(=O)c1ccc(/N=N/c2nc3nc(O)nc(O)c3[nH]2)cc1 (field: GI50) = > 100 µM (inactive)

response.value for COC(=O)C1=CC2OC1(C)C1(CC1)C2=O (stereo unspecified) (field: GI50) = > 100 µM (inactive)
